Taken from patent US20190307729A1.

Tested on: S. aureus Mu3
PROTOCOL: Secondary screening of compound 13 analogues in combination with gentamicin (growth by OD 595 nm)
REPORTED_CONDITIONS: [Cpd] 50 μM; [Genta] 100 ug/ml; relative to DMSO = 1
Known relative growth of a selection of compounds

{"columns": ["COMPOUND", "relative growth"],
 "data": [
  ["CC(C(=O)O)N1C(=O)/C(=C/c2ccc(Cl)cc2)SC1=S (stereo not shown)", 0.84],
  ["COc1ccc(/C=C2\\SC(=S)N(CC(=O)O)C2=O)cc1OCc1ccccc1", 0.72],
  ["CCOc1cc(/C=C2\\SC(=S)N(CC(=O)O)C2=O)ccc1OCc1ccc(Cl)c(Cl)c1", 1.16]
]}
